# TARGET_UNDER_TEST: human carbonic anhydrase II (human, UniProt P00918 1-260)
# EXPERIMENT_DESCRIPTION: SPR
Non-standard residues stand in square brackets, D forms with d. No end group written: not given here.
RESULT_TYPE: pKd
# log scale: pKd equals minus log10 of the concentration in mol/L

# query: pKd of entry [dF][dP][dL][dS][dK] [fplsk]
5.24

The reported numbers originate from paper PMC4224607.
